Would you kindly list aptazyme ON/OFF ratio for each of these variants?
B1: Pistol ribozyme (parent)
chain: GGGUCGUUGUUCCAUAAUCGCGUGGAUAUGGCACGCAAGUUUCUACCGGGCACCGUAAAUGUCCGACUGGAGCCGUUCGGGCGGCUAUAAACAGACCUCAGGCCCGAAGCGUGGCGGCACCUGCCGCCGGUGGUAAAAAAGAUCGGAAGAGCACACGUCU

- Variants of: B1
- Protocol summary: aptazyme ON/OFF ratio, guanine; higher = stronger switching; co-transcriptional cleavage with and without guanine
Answers are plain numbers.

>  <Mutation name>
U7A U8C G9C U11G C12A

>  <aptazyme ON/OFF ratio>
1.08

$$$$

Provide each entry's aptazyme ON/OFF ratio from the list below.
1. U7C U10A C12A
2. U7A U8C G9C U10C U11A C12A C13G
3. U8A G9C U10C U11C C12G C13A
4. U7C U8C U10G U11A C12G
5. U8G G9A C13A
6. U7C U8G U10C U11A C12G C13A

[1.22, 1.06, 1.01, 1.14, 1.24, 1.07]

Give aptazyme ON/OFF ratio for each listed item.
1. U7G G9C U10C C12G C13U
2. U7G U8A U10G U11G C12A C13U
3. U7C U8C G9A U10G U11A C12G C13A

1: 1.23; 2: 1.73; 3: 1.19

Provide aptazyme ON/OFF ratio for all items below, preserving their order.
1. U7G U8A G9A U10A U11A C12A
2. U7A G9C U10C U11A C13U
3. U7A U8A G9A U11A C12A C13A
4. U7C U8A G9C U11A C12G C13U
5. U7C U8G G9U U10C C12G C13U
6. U7C U8A G9C U10C C13U
7. U7A U8C G9C U10C U11C C12G C13A
8. U7G U8C G9U U11G C12G C13G

1.18
1.09
1.17
1.14
1.25
1.23
1.02
1.12

Your task in this section: give aptazyme ON/OFF ratio for each listed record.
1. U7A U10G U11G C12G
2. U7G U11C C13G
3. U7C U8C G9C U11A C13A
4. U8G U11A C12A
5. U8C G9C U10G U11A C12U

1: 1.45; 2: 1.08; 3: 1.13; 4: 1.45; 5: 1.02

Look at each variant and report its aptazyme ON/OFF ratio.
1. U7A G9A U10A U11C C12U C13U
2. U7C U8C G9U U10G C12A

1. 1.15
2. 1.22

List reported aptazyme ON/OFF ratio for each of these variants:
1. U7A G9U U11G C13A
2. U8C G9C U11A C12U C13A

1: 1.15; 2: 1.12

I would be grateful if you could provide aptazyme ON/OFF ratio for each of the following entries.
1. U8C G9A U10G C12G C13U
2. U7A U8C G9C C12G
3. U7G G9A U10G U11C C12U C13G

1.22
1.09
1.08

List the reported aptazyme ON/OFF ratio of each variant below.
1. G9A U10G U11C C12U
2. U8C G9C U10G U11A C12U C13G
3. U7A U8C G9A U10A U11A C12G C13U

[1.08, 1.08, 1.21]
